Could you please report measured IC50 for the items listed next?
Tested on: HEI-OC1 cells
Experiment Description: Protection against cisplatin-induced Caspase-3/7 activity in HEI-OC1 cells (Caspase-Glo 3/7)
Type: cell-based, mouse
Test Conditions: Mus musculus, HEI-OC1; Table 1; read-out: HEI-OC1 cell line IC50
Give bare numbers, in µM.

Molecule	Units Of Measure	IC50
FC(F)(F)c1ccc(/C=C/c2nc(COc3ccc(CCCCn4ccnn4)cc3)co2)cc1 [Mubritinib]	µM	0.039
O=C(Nc1cccc(Cl)c1)Nc1ncc(CCNc2ncnc3ccsc23)s1 [SNS-314]	µM	7.49
CC(C)(C)c1nc(-c2cccc(NS(=O)(=O)c3c(F)cccc3F)c2F)c(-c2ccnc(N)n2)s1 [Dabrafenib]	µM	13.5

Switching to the query record.
// IC50 value for CC1(COc2ccc3c(c2)ncn3-c2ccc3cccc(N4CCC(N)CC4)c3n2)COC1 [Crenolanib] : 2.4
